Entry source: ChEMBL document CHEMBL3400000

- MEASURED TARGET: G protein-coupled receptor 88 (Homo sapiens)
- TEST DESCRIPTION: Agonist activity at GPR88 (unknown origin) transfected into cells assessed as cAMP accumulation by HTRF assay
OBSERVED PROPERTY: EC50 (µM)
Numeric only. Scale: µM

Examples with answers:
O=C([C@@H]1C[C@H]1c1ccccc1)N(CCNCC1CCCCC1)c1ccc(-c2ccccc2)cc1 = 0.0066
CC[C@H](C)[C@H](N)CN(C(=O)[C@@H]1C[C@H]1c1ccccc1)c1ccc(-c2ccc(N)cc2)cc1 = 0.32

query: Answer with reported EC50 of `CC[C@H](C)[C@H](N)CN(C(=O)[C@@H]1C[C@H]1c1ncc(C)s1)c1ccc(-c2ccccc2)cc1`
result: 1.3

###

- MEASURED TARGET: G protein-coupled receptor 88 (Homo sapiens, UniProt Q9GZN0)
- Sequence (Q9GZN0 whole entry): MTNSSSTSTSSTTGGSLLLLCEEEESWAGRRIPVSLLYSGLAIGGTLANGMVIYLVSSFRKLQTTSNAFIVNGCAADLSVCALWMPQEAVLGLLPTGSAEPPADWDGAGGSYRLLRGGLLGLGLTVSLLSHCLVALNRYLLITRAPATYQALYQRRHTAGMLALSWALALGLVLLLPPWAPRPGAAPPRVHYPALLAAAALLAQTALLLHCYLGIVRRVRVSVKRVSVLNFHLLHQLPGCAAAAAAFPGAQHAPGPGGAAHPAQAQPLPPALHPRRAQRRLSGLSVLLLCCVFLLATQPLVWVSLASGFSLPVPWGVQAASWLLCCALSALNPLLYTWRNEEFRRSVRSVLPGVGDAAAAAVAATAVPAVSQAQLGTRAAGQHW
- TEST DESCRIPTION: Agonist activity at GPR88 (unknown origin) transfected into cells assessed as cAMP accumulation by HTRF assay
List of pEC50 values.
Lab note: report pEC50 as minus log10 of the concentration in molar units, number only.

CC(C)C[C@H](N)CN(C(=O)[C@@H]1C[C@H]1c1ccccc1)c1ccc(C2=CCCC2)cc1 = 5.92

query: Give pEC50; test system G protein-coupled receptor 88 (Homo sapiens, UniProt Q9GZN0); compound `CC[C@H](C)[C@H](N)CN(C(=O)[C@@H]1C[C@H]1c1ccccc1)c1ccc(-c2ccc(C(C)(C)C)cc2)cc1`
result: 6.12

query: State the measured pEC50 (G protein-coupled receptor 88 (Homo sapiens, UniProt Q9GZN0)) of `CC[C@H](C)[C@H](N)CN(C(=O)[C@@H]1C[C@H]1c1nc(C)c(C)s1)c1ccc(-c2ccccc2)cc1`
result: 5.44

query: Under G protein-coupled receptor 88 (Homo sapiens, UniProt Q9GZN0): report pEC50 of `CC[C@H](C)[C@H](N)CN(C(=O)[C@@H]1C[C@H]1c1cccnc1)c1ccc(-c2ccccc2)cc1` .
result: 5.82

query: Find the measured pEC50 of `CC[C@H](C)[C@@H](CN(C(=O)[C@@H]1C[C@H]1c1ccccc1)c1ccc(-c2ccccc2)cc1)NC(C)=O` with G protein-coupled receptor 88 (Homo sapiens, UniProt Q9GZN0) as test system.
result: 8.24

query: State pEC50 (G protein-coupled receptor 88 (Homo sapiens, UniProt Q9GZN0)) of `CC[C@H](C)[C@H](N)CN(C(=O)[C@@H]1C[C@H]1c1ccccc1)c1ccc(-c2ccc(NS(C)(=O)=O)cc2)cc1` .
result: 5.92

###

- MEASURED TARGET: G protein-coupled receptor 88 (Homo sapiens, UniProt Q9GZN0)
- TEST DESCRIPTION: Agonist activity at GPR88 (unknown origin) transfected into cells assessed as cAMP accumulation by HTRF assay
Overview of reported pEC50 across a group of compounds:
Note: pEC50 values are expressed as the negative base-10 logarithm of concentration in M.

Please review the entries below; each comes with its answer.
CCOC(=O)c1ccc(-c2ccc(N(C[C@@H](N)[C@@H](C)CC)C(=O)[C@@H]3C[C@H]3c3ccccc3)cc2)cc1 = 6.59
CC[C@H](C)[C@H](N)CN(C(=O)[C@@H]1C[C@H]1c1ccccc1)c1ccc(-c2ccc(CCC(=O)OC)cc2)cc1 = 6.96

query: Give the reported value of pEC50 for this record: `CC[C@H](C)[C@H](N)CN(C(=O)[C@@H]1C[C@H]1c1c(F)cccc1F)c1ccc(-c2ccccc2)cc1`
result: 4.96

query: Hello, please tell me recorded pEC50 for this one: `CC[C@H](C)[C@H](N)CN(C(=O)[C@@H]1C[C@H]1c1ccc(F)cc1)c1ccc(-c2ccccc2)cc1`
result: 6.22

query: Respond only with pEC50 recorded for `CC[C@H](C)[C@H](N)CN(C(=O)[C@@H]1C[C@H]1c1ccsc1)c1ccc(-c2ccccc2)cc1`
result: 6.35

query: Input `CC[C@H](C)[C@H](N)CN(C(=O)[C@@H]1C[C@H]1c1ccccc1)c1ccc(-c2ccc(OC(F)(F)F)cc2)cc1` , output reported pEC50.
result: 6.77

query: Output pEC50 of `N[C@H](CN(C(=O)[C@@H]1C[C@H]1c1ccccc1)c1ccc(-c2ccccc2)cc1)c1ccccc1`
result: 8.33

query: Determine from records and report pEC50 for `COc1ccccc1-c1ccc(N(C[C@@H](N)CC(C)C)C(=O)[C@@H]2C[C@H]2c2ccccc2)cc1`
result: 5.49
